These entries and their values trace back to patent US20070275936A1.

Assay: Pharmacokinetics of BrEA after subcutaneous dose in rats
Format: in vivo
Conditions: rat, plasma, sc, rats s.c., biphasic elimination; read-out: plasma elimination half-life, first phase (converted)
property_label: half-life

// field: half-life; key: C[C@]12CC[C@H](O)C[C@@H]1CC[C@@H]1[C@@H]2CC[C@]2(C)C(=O)[C@H](Br)C[C@@H]12 [BrEA] ; value = ~720 min

---

Experiment: Pharmacokinetics of BrEA after subcutaneous dose in rats
Type: in vivo
Settings: rat, plasma, sc, rats s.c., biphasic elimination; read-out: plasma elimination half-life, second phase (converted)
property_label: half-life

Value of measured half-life for the entry C[C@]12CC[C@H](O)C[C@@H]1CC[C@@H]1[C@@H]2CC[C@]2(C)C(=O)[C@H](Br)C[C@@H]12 : ~72 h
